Data origin: patent US10246429B2

Below, each entry is listed with its recorded log10(IC50).
# System name: UniProt P56817
# Sequence (P56817 46-501, species assumed): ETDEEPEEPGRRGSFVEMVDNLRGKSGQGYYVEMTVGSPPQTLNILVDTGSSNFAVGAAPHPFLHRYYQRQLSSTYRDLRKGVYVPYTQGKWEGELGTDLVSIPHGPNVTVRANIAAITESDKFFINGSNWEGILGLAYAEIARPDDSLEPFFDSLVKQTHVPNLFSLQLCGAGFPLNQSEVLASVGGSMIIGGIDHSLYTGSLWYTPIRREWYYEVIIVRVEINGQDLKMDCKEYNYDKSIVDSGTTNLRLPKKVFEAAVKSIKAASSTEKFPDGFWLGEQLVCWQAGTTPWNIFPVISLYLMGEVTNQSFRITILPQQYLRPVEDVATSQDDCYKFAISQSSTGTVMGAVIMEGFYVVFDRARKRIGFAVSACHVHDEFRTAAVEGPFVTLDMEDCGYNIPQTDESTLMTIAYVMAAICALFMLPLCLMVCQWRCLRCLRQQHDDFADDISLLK
# Assay text: BACE1 cell assay
# Type: cell-based
# Condition: read-out: IC50 IP (μM) BACE1 Cell
Short version: log10 scale, IC50, µM.

Some compounds with known log10(IC50) results, for comparison:
C[C@]1(c2cc(/C=C(\F)c3cnc(C#N)cn3)ccc2F)N=C(N)S[C@@]2(C(=O)N3CC[C@@H](F)C3)C[C@H]21; -3.00
C[C@]1(c2cc(/C=C(\F)c3ccc(C4COC4)cn3)ccc2F)N=C(N)S[C@@]2(C(=O)N3CCOCC3)C[C@H]21; -0.34
C#Cc1ccc(/C(F)=C/c2ccc(F)c([C@@]3(C)N=C(N)S[C@@]4(C(=O)N5CCOCC5)C[C@H]43)c2)nc1; -2.10
C[C@]1(c2cc(/C=C(\F)c3cnc(C#N)cn3)ccc2F)N=C(N)S[C@]2(CO)[C@H]1C2(F)F; -1.05

IN: Need log10(IC50) of "C#CCOc1cnc(/C(F)=C/c2ccc(F)c([C@@]3(C)N=C(N)S[C@@]4(C(=O)N5CC[C@@H](F)C5)C[C@H]43)c2)cn1" , thanks.
OUT: -3.40

IN: Need log10(IC50) of "C[C@]1(c2cc(/C=C(\F)c3ccc(C#N)cn3)ccc2F)N=C(N)S[C@@]2(C(=O)N3CC4CCC(C3)O4)C[C@H]21" , thanks.
OUT: -2.77

IN: Need log10(IC50) of "C[C@]1(c2cc(/C=C(\F)c3cnc(C#N)cn3)ccc2F)N=C(N)S[C@@]2(C(=O)N3CCCCC3)C[C@H]21" , thanks.
OUT: -2.05

IN: Need log10(IC50) of "CNC(=O)[C@]12C[C@H]1[C@@](C)(c1cc(/C=C(\F)c3ccc(Br)cn3)ccc1F)N=C(N)S2" , thanks.
OUT: -1.64
